# System: CEM/VLB1000 cell line
# measurement_description: Cytotoxicity potentiation: enhancement of vinblastine cytotoxicity in MDR cell line (alamar blue)
# Assay type: cell-based, human
# condition_label: Homo sapiens, midpoint of minimum and maximum cytotoxicity induced by 3-5 μg/mL vinblastine and compound, 48 hours incubation, alamar blue 24 hours, read-out: Cytotocicity Potentiation (EC50)
property_measured: pEC50
pEC50 here: minus log base 10 of the concentration, concentration in moles per litre.

Consider the worked cases shown below.
Could you tell me which pEC50 is on file for CCOC/C=C/c1ccc(-c2nc(-c3ccc(N4CCOCC4)cc3)c(C)[nH]2)cc1 ?
6.48

Item: CCOC(=O)c1cc(-c2ccc(-c3nc(-c4ccc(N(C)C)cc4)c(-c4ccc(N(C)C)cc4)[nH]3)cc2)no1
6.22

Next record, please: CCOC/C=C/c1ccc(-c2nc(-c3ccc(OCC)cc3)c(-c3ccc(OCC)cc3)[nH]2)cc1
6.62

Further, for CCOC/C=C/c1ccc(-c2nc(-c3ccc(NC(C)C)cc3)c(-c3ccc(F)cc3)[nH]2)cc1 ?
6.92

More entries:
Entry under review: COCCNc1ccc(-c2[nH]c(-c3ccc(/C=C/c4nc5ccccc5o4)cc3)nc2-c2ccc(N(C)C)cc2)cc1 . Reported pEC50?
6.80

Param item: COCCNc1ccc(-c2[nH]c(-c3ccc(/C=C/C#N)cc3)nc2-c2ccc(N(C)C)cc2)cc1
6.60

What about CCCCOC/C=C/c1ccc(-c2nc(-c3ccc(N(C)C)cc3)c(-c3ccc(N(C)C)cc3)[nH]2)cc1 ?
6.96
